test: Evaluation of conversion rate to active form in buffer solution (Experimental Example 1); format: physicochemical; details: pH7.4, 2 hr, 37° C., 25 umol/L in buffer solution
attribute_measured: Production rate of Alvocidib (%)
# unit: % | format: bare number

Query block: Fill in the blank: the reported Production rate of Alvocidib of CN1CC[C@H](c2c(OC(=O)N(Cc3ccccc3)CC3CCCCN3)cc(O)c3c(=O)cc(-c4ccccc4Cl)oc23)[C@H](O)C1 (stereo partly shown) is ____.
Result block: 75.2

Query block: Dear colleague, I am looking for the recorded Production rate of Alvocidib of the following compound: CCCN(CC1CCCCN1)C(=O)Oc1cc(O)c2c(=O)cc(-c3ccccc3Cl)oc2c1[C@H]1CCN(C)C[C@H]1O (stereo partly shown)
Result block: 92.4

Query block: // Production rate of Alvocidib lookup, key: `CN1CC[C@H](c2c(OC(=O)N(C)C[C@H]3CCCCN3)cc(O)c3c(=O)cc(-c4ccccc4Cl)oc23)[C@H](O)C1`
Result block: 44.6

Query block: # Production rate of Alvocidib lookup, item `CCCN(C[C@@H]1CCCCN1)C(=O)Oc1cc(O)c2c(=O)cc(-c3ccccc3Cl)oc2c1[C@H]1CCN(C)C[C@H]1O`
Result block: 88.9
